Biological target: human BTK (Homo sapiens, UniProt Q06187)
Sequence (Q06187 whole entry): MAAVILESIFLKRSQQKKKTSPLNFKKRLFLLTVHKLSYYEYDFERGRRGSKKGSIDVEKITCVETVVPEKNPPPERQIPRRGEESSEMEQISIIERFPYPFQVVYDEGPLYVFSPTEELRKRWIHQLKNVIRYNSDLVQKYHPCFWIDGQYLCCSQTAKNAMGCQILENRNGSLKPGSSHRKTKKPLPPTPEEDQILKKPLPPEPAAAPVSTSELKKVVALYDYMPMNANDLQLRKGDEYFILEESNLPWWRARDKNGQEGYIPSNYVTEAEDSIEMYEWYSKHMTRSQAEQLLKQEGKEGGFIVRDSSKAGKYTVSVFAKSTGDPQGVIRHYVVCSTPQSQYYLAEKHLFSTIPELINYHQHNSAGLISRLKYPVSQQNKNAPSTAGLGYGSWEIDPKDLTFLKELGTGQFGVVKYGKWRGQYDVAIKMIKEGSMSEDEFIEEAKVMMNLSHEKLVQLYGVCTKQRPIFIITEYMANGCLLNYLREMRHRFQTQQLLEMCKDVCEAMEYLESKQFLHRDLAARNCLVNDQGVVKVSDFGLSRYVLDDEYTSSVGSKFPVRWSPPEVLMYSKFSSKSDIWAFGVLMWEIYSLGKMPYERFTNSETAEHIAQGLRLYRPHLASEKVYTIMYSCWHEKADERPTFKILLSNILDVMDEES
Property Label: IC50

Please review the entries below; each comes with its answer.
Cc1cc(-c2nc(C(=O)Nc3cn4cc(CCC(C)(C)O)nc4cc3C3CCCCC3)co2)ccn1 ... 43.1 nM
Cc1cc(-c2nc(C(=O)Nc3cn4cc(CCC(C)(C)O)nc4cc3N3CCC(C)(C)CC3)co2)ccn1 ... 4.6 nM

Please examine the following record next.
Prompt: So what does the record say about IC50 for Cc1cc(-c2nc(C(=O)Nc3cn4cc(CCC(C)(C)O)nc4cc3N3CCC(F)(F)CC3)co2)ccn1 ?
Completion: 46 nM

// provenance: patent US12459940B2
